biological target: hERG channel (Homo sapiens, UniProt Q12809); assay: hERG patch clamp assay; details: HEK293 cells stably expressing hERG; whole-cell patch clamp, 26.5-28.5° C.
Sequence (Q12809 whole entry): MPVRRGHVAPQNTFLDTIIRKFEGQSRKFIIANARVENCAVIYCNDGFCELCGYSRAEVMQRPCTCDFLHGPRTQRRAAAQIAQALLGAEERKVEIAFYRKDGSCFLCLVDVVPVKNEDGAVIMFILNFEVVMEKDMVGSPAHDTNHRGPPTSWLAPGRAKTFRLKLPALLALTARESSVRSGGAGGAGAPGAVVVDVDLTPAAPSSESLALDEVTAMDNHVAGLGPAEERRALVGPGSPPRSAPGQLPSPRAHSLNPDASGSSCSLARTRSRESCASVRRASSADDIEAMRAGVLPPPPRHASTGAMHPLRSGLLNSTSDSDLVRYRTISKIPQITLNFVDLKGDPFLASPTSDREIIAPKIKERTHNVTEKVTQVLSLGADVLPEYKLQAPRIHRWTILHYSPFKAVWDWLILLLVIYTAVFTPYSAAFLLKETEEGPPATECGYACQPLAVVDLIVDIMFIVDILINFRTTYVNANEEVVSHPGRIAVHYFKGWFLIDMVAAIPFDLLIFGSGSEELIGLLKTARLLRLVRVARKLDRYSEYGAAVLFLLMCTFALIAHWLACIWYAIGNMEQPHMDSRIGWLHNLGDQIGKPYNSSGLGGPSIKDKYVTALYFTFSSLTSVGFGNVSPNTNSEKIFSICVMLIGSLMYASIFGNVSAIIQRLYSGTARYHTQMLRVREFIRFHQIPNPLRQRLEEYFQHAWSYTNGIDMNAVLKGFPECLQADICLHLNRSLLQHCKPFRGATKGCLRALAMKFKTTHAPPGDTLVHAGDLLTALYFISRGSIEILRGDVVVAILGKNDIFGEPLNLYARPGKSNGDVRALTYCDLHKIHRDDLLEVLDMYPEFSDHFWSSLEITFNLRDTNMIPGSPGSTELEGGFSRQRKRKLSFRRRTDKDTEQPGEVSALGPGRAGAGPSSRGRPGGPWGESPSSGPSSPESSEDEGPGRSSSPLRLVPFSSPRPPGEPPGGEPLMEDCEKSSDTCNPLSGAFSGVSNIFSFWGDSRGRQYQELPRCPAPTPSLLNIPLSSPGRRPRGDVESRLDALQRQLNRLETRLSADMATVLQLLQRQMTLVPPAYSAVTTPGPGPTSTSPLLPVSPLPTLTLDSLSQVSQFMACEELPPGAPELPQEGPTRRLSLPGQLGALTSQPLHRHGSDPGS
pIC50: −log10 of the molar value.
recorded-metric: pIC50

chem_smiles=CC(C)N1CCC(Oc2ccc3c(n2)CCN(c2ccc(C(N)=O)cn2)C3)CC1 observed_value=4.65
